# Test system: Escherichia coli
# protocol notes: Antimicrobial susceptibility testing (MIC), BD Phoenix Automated Microbiology System
# Assay type: cell-based
# condition context: Escherichia coli, read-out: minimal inhibiting concentration, Escherichia coli isolate 4
endpoint name: MIC

Answered examples (3):
sample smiles	result
Cc1nnc(SCC2=C(C(=O)O)N3C(=O)[C@@H](NC(=O)Cn4cnnn4)[C@H]3SC2)s1	> 16 mg/L
CO/N=C(\C(=O)N[C@@H]1C(=O)N2C(C(=O)O)=C(COC(N)=O)CS[C@H]12)c1ccco1	> 16 mg/L
CO[C@@]1(NC(=O)Cc2cccs2)C(=O)N2C(C(=O)O)=C(COC(N)=O)CS[C@@H]21	> 16 mg/L

With those in mind, consider the next compound.
The reported value for C[C@@H](O)[C@H]1C(=O)N2C(C(=O)O)=C(SCCN=CN)C[C@H]12 in terms of MIC is ≤ 1 mg/L
